Molecular target: RRE subdomain IIB RNA hairpin IIBh
Experiment: Fluorescence intensity binding to fluorescein-labelled IIBh hairpin
Parameters: species or system HIV-1
Conditions: 10-fold molar excess LTRd; 10 mM HEPES pH 7.5, 200 mM KCl, 2 mM MgCl2; read-out: Kd (IIBh+LTRd), one-site or first-site Kd1, Table S2
Excerpt: We next determined whether the terphenyl molecules blocked the interaction between Rev34–50 and subdomain IIB by binding to the RNA and, if so, whether they recognized subdomain IIB in a manner similar to the Rev34–50 α-helix. We first evaluated subdomain IIB association by measuring changes in the fluorescence intensity of a IIBh RNA hairpin construct containing a fluorescein probe attached to unpaired loop IIB residue U23 (Fig. 1D)[21],[22]. […]
Value Type: Kd (µM)
Answers are plain numbers, in µM.

COc1cc(CCN)c(-c2cc(C)c(-c3cc(CCN)c(OC)cc3CCN)cc2C)cc1CCN = 15

The record that follows has no Kd shown yet.
Value wanted: Kd (RRE subdomain IIB RNA hairpin IIBh) of entry Cc1cc(-c2cc(CCN)ccc2CCN)c(C)cc1-c1cc(CCN)ccc1CCN
3.7

---

biological target: RRE subdomain IIB RNA hairpin IIBh; assay: Fluorescence intensity binding to fluorescein-labelled IIBh hairpin; parameters: species or system HIV-1; details: 10 mM sodium phosphate pH 6.6, 0.1 mM EDTA; two-site model; read-out: Kd (IIBh), first-site Kd1
I'd appreciate it if you could supply pKd values for the items below.
One number for each entry, as −log10 of the molar value.

The cases that follow already have their pKd on record.
Cc1cc(-c2cc(CCN)ccc2CCN)c(C)cc1-c1cc(CCN)ccc1CCN = 6.06
CCc1cc(-c2cc(CCN)c(OC)cc2CCN)c(CC)cc1-c1cc(CCN)c(OC)cc1CCN = 6.29
Cc1cc(-c2cc(CCN)ccc2CCN)c(C)cc1-c1cccc(CCN)c1 = 5.19

The record that follows has no pKd shown yet.
# get_value(readout='pKd', item= COc1cc(CCN)c(-c2cc(C)c(-c3cc(CCN)c(OC)cc3CCN)cc2C)cc1CCN )
6.01

---

biological target: RRE subdomain IIB RNA hairpin IIBh; assay: Fluorescence intensity binding to fluorescein-labelled IIBh hairpin; set-up: species or system HIV-1; conditions: higher ionic strength; 10 mM HEPES pH 7.5, 200 mM KCl, 2 mM MgCl2; read-out: Kd (IIBh), second-site Kd2 (in brackets), Table S2
I'd appreciate it if you could supply Kd values for the items below.
Numbers only, in µM.

COc1cc(CCN)c(-c2cc(C)c(-c3cc(CCN)c(OC)cc3CCN)cc2C)cc1CCN = 18

The record that follows has no Kd shown yet.
# get_value(readout='Kd', item= Cc1cc(-c2cc(CCN)ccc2CCN)c(C)cc1-c1cc(CCN)ccc1CCN )
30

---

I'd appreciate it if you could supply IIB-DNA spec., Kd(IIBh)/Kd(IIBh+LTRd) values for the items below.
tested on: RRE subdomain IIB RNA hairpin IIBh; test: Fluorescence intensity binding to fluorescein-labelled IIBh hairpin; set-up: species or system HIV-1; details: low ionic strength, 10 mM sodium phosphate pH 6.6; uses Kd1

COc1cc(CCN)c(-c2cc(C)c(-c3cc(CCN)c(OC)cc3CCN)cc2C)cc1CCN = 0.41

Hi, could you look up IIB-DNA spec., Kd(IIBh)/Kd(IIBh+LTRd) for each item in my list?
1. Cc1cc(-c2cc(CCN)ccc2CCN)c(C)cc1-c1cccc(CCN)c1
2. Cc1cc(-c2cc(CCN)ccc2CCN)c(C)cc1-c1cc(CCN)ccc1CCN

1: 0.80; 2: 0.40

Value wanted: IIB-DNA spec., Kd(IIBh)/Kd(IIBh+LTRd) (RRE subdomain IIB RNA hairpin IIBh) of entry CCc1cc(-c2cc(CCN)c(OC)cc2CCN)c(CC)cc1-c1cc(CCN)c(OC)cc1CCN
0.078

Values were extracted from paper PMC7188855.
